Entries annotated with measured viability at 48 h, 1 µM
protocolSummary: Cell viability measurement (MTS), Calu-3 cells
Assay type: cell-based
conditionsUsed: human, 1 μM

Previously resolved entries follow.
INSERT INTO assay_data (givensmiles, endpointresult) VALUES
  ('c1cncc(-c2ccc(Nc3cccc(-c4nc5ccccc5[nH]4)c3)cc2)c1', '50 to 80%'),
  ('c1ccc(-c2ccc(Nc3cccc(-c4nc5ccccc5[nH]4)c3)nn2)cc1', '50 to 80%'),
  ('FC(F)(F)c1cc2[nH]c(-c3cccc(Nc4ncc(-c5cccnn5)cn4)c3)nc2cn1', '> 80%'),
  ('FC(F)(F)c1ccc2nc(-c3cccc(Nc4ncc(-c5ccccn5)cn4)c3)[nH]c2c1', '> 80%'),
  ('FC(F)(F)Oc1ccc2nc(-c3cccc(Nc4ccc(-c5ccncn5)cc4)c3)[nH]c2c1', '50 to 80%'),
  ('FC(F)(F)c1ccc2nc(-c3cccc(Nc4ncc(-c5cccnn5)cn4)c3)[nH]c2c1', '50 to 80%');

Look at this molecule and give its reported viability at 48 h, 1 µM. `Cc1noc(-c2ccc3nc(-c4cccc(Nc5ccc(-c6cccnn6)cc5)c4)[nH]c3c2)n1`
> 80%

Look at this molecule and give its reported viability at 48 h, 1 µM. `Fc1cc2[nH]c(-c3cccc(Nc4ccc(-c5cccnn5)cc4)c3)nc2cc1C(F)(F)F`
50 to 80%
